- protocol description: Leishmania major promastigote growth inhibition, primary screen (AID 1063);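 note: promastigotes grown with compound for 44 hours at 28 °C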
- conditions: Leishmania major promastigotes, resazurin fluorescence viability; at 10 µM
Out of some 200,000 compounds screened, about 18,000 (9%) were called active. Cut-off read from the data, not from the text of the source: active = inhibition above about 50%; inactive = the rest. For the sample, actives were picked, then their nearest neighbours and some compounds at random.
Give one outcome, nothing more. List: active, inactive

Use these answered entries as a reference point.
### Prompt Look up the recorded call for O=C(Cc1c[nH]c2ccccc12)OCCOC(=O)Cc1c[nH]c2ccccc12 in this test.
### Response active

### Prompt Look up the recorded call for COC(=O)c1cc(NC(=O)c2cccnc2)ccc1N1CCOCC1 in this test.
### Response inactive

### Prompt Look up the recorded call for CCOc1ccc(NC(=O)CCC(=O)n2nc(C)cc2C)cc1 in this test.
### Response inactive

### Prompt Look up the recorded call for CC(C)(C)NC(=O)C(=O)NN=C1CCCCCCC1 in this test.
### Response inactive

### Prompt Look up the recorded call for CCOC(=O)c1ccccc1NC(=O)CSc1nc2ccccc2c(=O)[nH]1 in this test.
### Response inactive

Continuing:
### Prompt Look up the recorded call for CN(C)S(=O)(=O)c1cccc(NC(=O)COC(=O)C2(c3ccccc3F)CCCC2)c1 in this test.
### Response inactive

### Prompt Look up the recorded call for CCN(c1ccccc1)S(=O)(=O)c1ccc(NC(=O)C(C)(C)C)cc1 in this test.
### Response inactive

### Prompt Look up the recorded call for CCOC(=O)CN(C)Cc1c[nH]c2ccccc12 in this test.
### Response inactive

### Prompt Look up the recorded call for COc1cc(/C=N\NC(=O)CNC(=O)c2cccc([N+](=O)[O-])c2)ccc1O in this test.
### Response inactive

### Prompt Look up the recorded call for CC(C)(C)c1ccc(/C=C/C(=O)NC2CCS(=O)(=O)C2)cc1 (configuration not stated) in this test.
### Response inactive

* * *

The reader will find reported inhibition values listed item by item below.
- protocol description: Leishmania major promastigote growth inhibition, primary screen (AID 1063);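 note: promastigotes grown with compound for 44 hours at 28 °C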
- conditions: Leishmania major promastigotes, resazurin fluorescence viability; at 10 µM; hits give high values
Among all 200,000 compounds or so, about 18,000 (9%) were called active. This is one part of a sample in which actives are shown more often than they occur.
Supply the numeric figure in %, leaving out any unit text.

### Prompt Value lookup for inhibition; key = CCN(Cc1nc2ccccc2c(=O)[nH]1)Cc1cc(=O)oc2cc(C)c(C)cc12
### Response 73.8

### Prompt Value lookup for inhibition; key = COC(=O)C(=Nc1ccccc1)/C(C(=O)C(=O)N(C)c1ccccc1)=C(\O)c1ccc(Cl)cc1
### Response -4.81

### Prompt Value lookup for inhibition; key = O=C(Nc1nnc(Cc2ccc(Cl)cc2)s1)c1cccnc1
### Response -10.8

### Prompt Value lookup for inhibition; key = Clc1ccc(-c2nc3ccccn3c2CN2CCSCC2)cc1
### Response 77.4

### Prompt Value lookup for inhibition; key = O=C(CCCNS(=O)(=O)c1cccc2nsnc12)NCCN1CCN(c2ccccc2F)CC1
### Response -3.45

Continuing:
### Prompt Value lookup for inhibition; key = O=C(CN1CCSCC1)N/N=C/c1ccc(Cl)cc1
### Response 7.06

* * *

- protocol description: Leishmania major promastigote growth inhibition, primary screen (AID 1063);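 note: promastigotes grown with compound for 44 hours at 28 °C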
- conditions: Leishmania major promastigotes, resazurin fluorescence viability; at 10 µM
Among all 200,000 compounds or so, about 18,000 (9%) were called active. No stated cut-off is given here; in the data, active means inhibition above about 50%; inactive means the rest. The entries come from a sample that favours actives as a whole.
Give one outcome, nothing more. List: active, inactive

### Prompt Look up the recorded call for CCN(CC)C(=O)N(CC)Cc1ccccc1 in this test.
### Response inactive

### Prompt Look up the recorded call for CSc1cc(C)[nH]c(=O)n1 in this test.
### Response inactive

### Prompt Look up the recorded call for CC(C)(C)[C@H]1C=C(C(=O)NCc2ccccc2)O[C@@H](OCc2ccc(CO)cc2)C1 in this test.
### Response inactive

### Prompt Look up the recorded call for COc1cccc(CNCCc2c[nH]c3ccccc23)c1OCc1ccccc1F in this test.
### Response active

### Prompt Look up the recorded call for COc1ccccc1NC(=O)CCCc1c[nH]c2ccccc12 in this test.
### Response inactive

Continuing:
### Prompt Look up the recorded call for C=CCOC(=O)C1=C[C@@H](c2ccccc2)C[C@@H](OCc2ccc(CO)cc2)O1 in this test.
### Response inactive

### Prompt Look up the recorded call for COC(=O)Cc1c(O)ccn(Cc2cccc(C(F)(F)F)c2)c1=O in this test.
### Response inactive

### Prompt Look up the recorded call for O=C(NCc1ccccc1)C1=C[C@@H](C2CCCCC2)C[C@@H](OCc2ccc(CO)cc2)O1 in this test.
### Response active

### Prompt Look up the recorded call for C=CCn1c(CCc2ccc(OC(C)C)cc2)n[nH]c1=S in this test.
### Response inactive

### Prompt Look up the recorded call for Cc1cc(C)cc(NC(=S)NCCc2c[nH]c3ccccc23)c1 in this test.
### Response inactive

### Prompt Look up the recorded call for O=C(NCc1ccccc1)C1=C[C@@H](c2ccc(C(F)(F)F)cc2)C[C@@H](OCc2ccc(CO)cc2)O1 in this test.
### Response active
